Test system: human T lymphocyte leukemia cell line HuT78
Test: CCK-8 in vitro proliferation inhibition
Assay type: cell-based
Conditions: Homo sapiens, HuT78, 72 hours, read-out: Inhibitory activity (IC50) on cell proliferation, HUT78
Method: Cell lines: human chronic myeloid leukemia cell line K562, human acute myeloid leukemia cell line U937, human T lymphocyte leukemia cell line HuT78, and human T lymphoblastic lymphoma cell line Jurkat. […] […] were cultured overnight and suspended cells were directly stimulated with drugs. […] The absorbance values at 450 nm and 650 nm were measured using a microplate reader, and the increment Z (A450-A650) was derived. […] The half inhibitory concentration (IC50) was calculated. […]
Collected IC50 values appear next to each entry.
experimentalEndpoint: IC50 (nM)

{"molecule": "C=CC(=O)Nc1cc(Nc2ncc(Cl)c(O[C@@H]3CO[C@H]4[C@@H]3OC[C@H]4O)n2)ccc1N1CCC(N(C)C)CC1 [LS 5-102]", "measuredOn": "human T lymphocyte leukemia cell line HuT78", "val": 92.4}
{"molecule": "C=CC(=O)Nc1cc(Nc2ncc(Cl)c(O[C@@H]3CO[C@H]4[C@@H]3OC[C@H]4O)n2)ccc1N1CCC2(CCN(C)CC2)CC1 [LS 5-91]", "measuredOn": "human T lymphocyte leukemia cell line HuT78", "val": 19.2}
{"molecule": "C=C(C)C(=O)Nc1cc(Nc2ncc(Cl)c(O[C@@H]3CO[C@H]4[C@@H]3OC[C@H]4O)n2)ccc1N1CCC(N2CCN(C)CC2)CC1 [LS 5-73]", "measuredOn": "human T lymphocyte leukemia cell line HuT78", "val": 476}
{"molecule": "CN1CCN(C2CCN(c3ccc(Nc4ncc(Cl)c(O[C@@H]5CO[C@H]6[C@@H]5OC[C@H]6O)n4)cc3Cl)CC2)CC1 [LS 4-104]", "measuredOn": "human T lymphocyte leukemia cell line HuT78", "val": 2420}
{"molecule": "C=CC(=O)Nc1cc(Nc2ncc(Cl)c(O[C@@H]3CO[C@H]4[C@@H]3OC[C@H]4O)n2)ccc1N1CCN(CC)CC1 [LS 5-143]", "measuredOn": "human T lymphocyte leukemia cell line HuT78", "val": 75.3}
{"molecule": "COc1cc(Nc2ncc(Cl)c(O[C@@H]3CO[C@H]4[C@@H]3OC[C@H]4O)n2)ccc1N1CCC(N2CCN(C)CC2)CC1 [LS 4-143]", "measuredOn": "human T lymphocyte leukemia cell line HuT78", "val": 3380}
{"molecule": "C=CC(=O)Nc1cc(Nc2ncc(Cl)c(O[C@@H]3CO[C@H]4[C@@H]3OC[C@H]4O)n2)ccc1N(C)CCN(C)C [LS 5-88]", "measuredOn": "human T lymphocyte leukemia cell line HuT78", "val": 81.1}
{"molecule": "C=CC(=O)Nc1cc(Nc2ncc(Cl)c(O[C@@H]3CO[C@H]4[C@@H]3OC[C@H]4O)n2)ccc1N1CCOCC1 [LS 5-66]", "measuredOn": "human T lymphocyte leukemia cell line HuT78", "val": 1090}
{"molecule": "C=CC(=O)Nc1cc(Nc2ncc(Cl)c(O[C@@H]3CO[C@H]4[C@@H]3OC[C@H]4O)n2)ccc1N1CCC(N(C)C)C1 (some centres unmarked) [LS 5-150]", "measuredOn": "human T lymphocyte leukemia cell line HuT78", "val": 272}
{"molecule": "C=CC(=O)Nc1cc(Nc2ncc(Cl)cn2)ccc1N1CCC(N2CCN(C)CC2)CC1 [LS 5-126]", "measuredOn": "human T lymphocyte leukemia cell line HuT78", "val": 463}
{"molecule": "C=CC(=O)Nc1cc(Nc2ncc(Cl)c(O[C@@H]3CO[C@H]4[C@@H]3OC[C@H]4O)n2)ccc1N(C)CCO [LS 5-74]", "measuredOn": "human T lymphocyte leukemia cell line HuT78", "val": 448}
{"molecule": "C/C=C/C(=O)Nc1cc(Nc2ncc(Cl)c(O[C@@H]3CO[C@H]4[C@@H]3OC[C@H]4O)n2)ccc1N1CCC(N2CCN(C)CC2)CC1 [LS 5-72]", "measuredOn": "human T lymphocyte leukemia cell line HuT78", "val": 928}
{"molecule": "C=CC(=O)Nc1cc(Nc2ncc(Cl)c(O[C@@H]3CO[C@H]4[C@@H]3OC[C@H]4O)n2)c(OC)cc1N1CCC(N2CCN(C)CC2)CC1 [LS 5-3]", "measuredOn": "human T lymphocyte leukemia cell line HuT78", "val": 8080}
{"molecule": "CN(C)C/C=C/C(=O)Nc1cc(Nc2ncc(Cl)c(O[C@@H]3CO[C@H]4[C@@H]3OC[C@H]4O)n2)ccc1N1CCC(N2CCN(C)CC2)CC1 [LS 5-81]", "measuredOn": "human T lymphocyte leukemia cell line HuT78", "val": 1060}

* * *

biological target: JAK3 (Homo sapiens (Human)); experiment: Z′-Lyte kinase inhibitory activity test; format: biochemical; conditions: ATP concentration Km; in μM
Sequence (P52333 whole entry): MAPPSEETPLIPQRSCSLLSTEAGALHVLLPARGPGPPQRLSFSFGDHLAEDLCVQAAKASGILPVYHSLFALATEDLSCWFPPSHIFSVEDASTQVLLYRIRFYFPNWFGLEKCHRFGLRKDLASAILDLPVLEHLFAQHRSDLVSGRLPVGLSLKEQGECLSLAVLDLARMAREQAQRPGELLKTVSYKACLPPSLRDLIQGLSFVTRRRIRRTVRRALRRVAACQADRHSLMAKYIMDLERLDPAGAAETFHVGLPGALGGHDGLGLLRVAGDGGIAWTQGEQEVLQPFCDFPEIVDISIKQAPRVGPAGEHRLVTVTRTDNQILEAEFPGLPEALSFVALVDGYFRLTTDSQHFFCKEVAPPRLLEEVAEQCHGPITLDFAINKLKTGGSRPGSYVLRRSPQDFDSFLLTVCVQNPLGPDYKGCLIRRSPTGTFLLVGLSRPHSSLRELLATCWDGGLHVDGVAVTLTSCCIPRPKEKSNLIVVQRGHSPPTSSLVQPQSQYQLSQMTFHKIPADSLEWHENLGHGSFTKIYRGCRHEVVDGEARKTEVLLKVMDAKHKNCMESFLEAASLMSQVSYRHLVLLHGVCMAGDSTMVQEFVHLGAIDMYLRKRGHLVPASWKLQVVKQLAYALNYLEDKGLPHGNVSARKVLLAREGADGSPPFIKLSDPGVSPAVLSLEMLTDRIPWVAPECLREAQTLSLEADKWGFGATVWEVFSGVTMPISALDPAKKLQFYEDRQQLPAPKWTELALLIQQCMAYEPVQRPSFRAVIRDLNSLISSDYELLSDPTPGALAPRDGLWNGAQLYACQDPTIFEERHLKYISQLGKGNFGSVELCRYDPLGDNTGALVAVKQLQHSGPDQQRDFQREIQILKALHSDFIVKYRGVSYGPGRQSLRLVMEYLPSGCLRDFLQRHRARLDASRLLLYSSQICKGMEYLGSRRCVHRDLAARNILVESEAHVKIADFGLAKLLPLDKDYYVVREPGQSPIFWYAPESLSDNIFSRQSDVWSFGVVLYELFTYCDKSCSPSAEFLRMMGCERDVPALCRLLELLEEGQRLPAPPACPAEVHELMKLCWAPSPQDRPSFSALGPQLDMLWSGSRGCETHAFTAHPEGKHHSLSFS
experimentalEndpoint: IC50

{"molSmiles": "COc1cc(N2CCC(N3CCN(C)CC3)CC2)ccc1Nc1ncc(Cl)c(O[C@H]2CO[C@H]3[C@@H]2OC[C@H]3O)n1", "val": "> 10 µM"}

* * *

Reported IC50 is given for each of the following compounds.
biological target: JAK1 (Homo sapiens (Human), UniProt P23458); assay: Z′-Lyte kinase inhibitory activity test; type: biochemical; details: ATP concentration Km
Sequence (P23458 whole entry): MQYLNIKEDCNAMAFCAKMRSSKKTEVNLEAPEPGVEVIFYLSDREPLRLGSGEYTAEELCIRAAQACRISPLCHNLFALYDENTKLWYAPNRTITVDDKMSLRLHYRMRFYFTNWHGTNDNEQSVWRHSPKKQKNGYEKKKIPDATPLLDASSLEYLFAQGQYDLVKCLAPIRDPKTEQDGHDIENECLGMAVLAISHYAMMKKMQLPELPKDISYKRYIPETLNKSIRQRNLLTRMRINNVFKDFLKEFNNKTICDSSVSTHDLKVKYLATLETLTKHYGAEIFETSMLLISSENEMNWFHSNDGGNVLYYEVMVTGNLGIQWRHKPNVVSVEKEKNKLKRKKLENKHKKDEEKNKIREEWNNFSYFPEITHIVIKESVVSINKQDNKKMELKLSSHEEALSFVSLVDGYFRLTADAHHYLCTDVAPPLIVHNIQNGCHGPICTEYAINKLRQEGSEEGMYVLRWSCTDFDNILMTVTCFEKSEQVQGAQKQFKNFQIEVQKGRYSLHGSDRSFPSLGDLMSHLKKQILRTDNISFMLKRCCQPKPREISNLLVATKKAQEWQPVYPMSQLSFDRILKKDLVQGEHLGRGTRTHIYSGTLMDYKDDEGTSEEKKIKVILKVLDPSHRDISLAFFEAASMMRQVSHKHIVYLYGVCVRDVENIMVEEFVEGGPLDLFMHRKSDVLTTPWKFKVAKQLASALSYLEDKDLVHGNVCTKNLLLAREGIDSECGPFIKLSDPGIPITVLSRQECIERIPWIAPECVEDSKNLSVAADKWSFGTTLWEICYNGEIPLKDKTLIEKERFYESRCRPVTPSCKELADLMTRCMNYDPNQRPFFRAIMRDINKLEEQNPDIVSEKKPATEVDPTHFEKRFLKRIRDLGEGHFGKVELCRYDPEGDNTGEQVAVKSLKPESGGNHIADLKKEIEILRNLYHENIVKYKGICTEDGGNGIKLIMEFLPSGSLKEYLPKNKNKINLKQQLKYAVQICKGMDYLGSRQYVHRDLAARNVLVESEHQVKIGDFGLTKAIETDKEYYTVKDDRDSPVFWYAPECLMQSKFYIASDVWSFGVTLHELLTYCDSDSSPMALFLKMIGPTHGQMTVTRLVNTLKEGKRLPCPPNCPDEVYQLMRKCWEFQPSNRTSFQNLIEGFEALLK

{"molSmiles": "C=CC(=O)Nc1cc(Nc2ncc(Cl)c(O[C@@H]3CO[C@H]4[C@@H]3OC[C@H]4O)n2)ccc1N(C)CCN(C)C", "measuredOn": "JAK1 (Homo sapiens (Human), UniProt P23458)", "IC50 / nM": 2870}
{"molSmiles": "C=CC(=O)Nc1cc(Nc2ncc(Cl)c(O[C@@H]3CO[C@H]4[C@@H]3OC[C@H]4O)n2)ccc1F", "measuredOn": "JAK1 (Homo sapiens (Human), UniProt P23458)", "IC50 / nM": 1060}
{"molSmiles": "C=CC(=O)Nc1cc(Nc2ncc(Cl)c(O[C@@H]3CO[C@H]4[C@@H]3OC[C@H]4OC)n2)ccc1N1CCN(C)[C@@H](C)C1", "measuredOn": "JAK1 (Homo sapiens (Human), UniProt P23458)", "IC50 / nM": 4680}
{"molSmiles": "C=CC(=O)Nc1cc(Nc2ncc(Cl)c(O[C@@H]3CO[C@H]4[C@@H]3OC[C@H]4O)n2)ccc1N1CCC2(CCN(C)CC2)CC1", "measuredOn": "JAK1 (Homo sapiens (Human), UniProt P23458)", "IC50 / nM": 895}
{"molSmiles": "C=C(C)C(=O)Nc1cc(Nc2ncc(Cl)c(O[C@@H]3CO[C@H]4[C@@H]3OC[C@H]4O)n2)ccc1N1CCC(N2CCN(C)CC2)CC1", "measuredOn": "JAK1 (Homo sapiens (Human), UniProt P23458)", "IC50 / nM": 1730}

* * *

target: JAK2 (Homo sapiens (Human)); test: Z′-Lyte kinase inhibitory activity test; assay type: biochemical; conditions: ATP concentration Km
Sequence (O60674 whole entry): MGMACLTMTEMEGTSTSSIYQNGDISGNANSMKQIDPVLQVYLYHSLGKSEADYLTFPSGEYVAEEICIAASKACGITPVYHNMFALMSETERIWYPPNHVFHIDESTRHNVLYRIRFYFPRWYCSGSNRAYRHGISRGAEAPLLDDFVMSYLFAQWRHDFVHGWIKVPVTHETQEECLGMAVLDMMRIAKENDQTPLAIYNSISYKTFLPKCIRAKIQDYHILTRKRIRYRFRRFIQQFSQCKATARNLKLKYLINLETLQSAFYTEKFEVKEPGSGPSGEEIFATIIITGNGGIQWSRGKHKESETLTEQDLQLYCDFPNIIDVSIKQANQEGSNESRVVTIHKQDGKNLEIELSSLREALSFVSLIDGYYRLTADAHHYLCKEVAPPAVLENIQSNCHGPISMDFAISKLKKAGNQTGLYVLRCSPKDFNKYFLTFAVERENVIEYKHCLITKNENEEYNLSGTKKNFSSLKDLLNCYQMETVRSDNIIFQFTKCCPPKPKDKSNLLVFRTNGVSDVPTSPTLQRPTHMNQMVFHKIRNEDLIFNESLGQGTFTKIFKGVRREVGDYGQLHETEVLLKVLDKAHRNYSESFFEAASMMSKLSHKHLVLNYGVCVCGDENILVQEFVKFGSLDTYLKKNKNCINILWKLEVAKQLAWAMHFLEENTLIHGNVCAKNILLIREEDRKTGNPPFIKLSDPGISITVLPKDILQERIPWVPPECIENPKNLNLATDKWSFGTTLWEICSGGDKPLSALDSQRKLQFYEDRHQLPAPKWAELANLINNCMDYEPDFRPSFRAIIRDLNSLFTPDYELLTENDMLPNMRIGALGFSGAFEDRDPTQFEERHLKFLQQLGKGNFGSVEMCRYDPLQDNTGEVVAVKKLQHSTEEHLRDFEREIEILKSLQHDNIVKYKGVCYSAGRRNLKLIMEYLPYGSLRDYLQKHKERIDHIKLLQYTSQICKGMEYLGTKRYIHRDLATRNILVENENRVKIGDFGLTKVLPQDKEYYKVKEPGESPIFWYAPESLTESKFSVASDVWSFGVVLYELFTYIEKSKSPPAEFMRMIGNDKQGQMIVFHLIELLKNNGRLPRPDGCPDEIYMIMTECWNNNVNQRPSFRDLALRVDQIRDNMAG
Exam item: assign condition met to entries whose IC50 is below 700 nM and condition not met to entries at or above 700 nM. Note that a value of exactly 700 nM receives condition not met.

{"molSmiles": "C=CC(=O)Nc1cc(Nc2ncc(Cl)c(O[C@@H]3CO[C@H]4[C@@H]3OC[C@H]4O)n2)ccc1N1CCOCC1", "measuredOn": "JAK2 (Homo sapiens (Human))", "labelClass": "condition not met"}
{"molSmiles": "C=CC(=O)Nc1cc(Nc2ncc(C)c(O[C@@H]3CO[C@H]4[C@@H]3OC[C@H]4O)n2)ccc1N1CCC(N2CCN(C)CC2)CC1", "measuredOn": "JAK2 (Homo sapiens (Human))", "labelClass": "condition met"}
{"molSmiles": "N#CC1(c2ccc(Nc3ncc(Cl)c(O[C@@H]4CO[C@H]5[C@@H]4OC[C@H]5O)n3)cc2)CCCC1", "measuredOn": "JAK2 (Homo sapiens (Human))", "labelClass": "condition met"}
{"molSmiles": "CN1CCN(C2CCN(c3ccc(Nc4ncc(Cl)c(O[C@@H]5CO[C@H]6[C@@H]5OC[C@@H]6O)n4)cc3Cl)CC2)CC1", "measuredOn": "JAK2 (Homo sapiens (Human))", "labelClass": "condition met"}
{"molSmiles": "C=CC(=O)Nc1cc(Nc2ncc(Cl)c(O[C@@H]3CO[C@H]4[C@@H]3OC[C@H]4OC)n2)ccc1N1CCOCC1", "measuredOn": "JAK2 (Homo sapiens (Human))", "labelClass": "condition not met"}
{"molSmiles": "C=CC(=O)Nc1cc(Nc2ncc(Cl)c(O[C@@H]3CO[C@H]4[C@@H]3OC[C@H]4OCC)n2)ccc1N(C)CCN(C)C", "measuredOn": "JAK2 (Homo sapiens (Human))", "labelClass": "condition not met"}
{"molSmiles": "C=CC(=O)Nc1cc(Nc2ncc(Cl)c(O[C@@H]3CO[C@H]4[C@@H]3OC[C@H]4F)n2)ccc1N1CCN(CC)CC1", "measuredOn": "JAK2 (Homo sapiens (Human))", "labelClass": "condition not met"}

* * *

Biological target: JAK2 (Homo sapiens (Human))
Assay: Z′-Lyte kinase inhibitory activity test
Format: biochemical
Method: Test method: Firstly, test compounds were prepared into 10 mM stock solution with DMSO, and continuously diluted into 10 concentrations at a 3-fold gradient for later use. […] The kinase concentration was determined based on enzyme titration, and the final concentration of peptide substrate and phosphorylated peptide substrate was 2 μM. […]
IC50 values by entry

{"molSmiles": "C=CC(=O)Nc1cccc(Nc2ncc(Cl)c(O[C@@H]3CO[C@H]4[C@@H]3OC[C@H]4O)n2)c1", "IC50, µM": 1.4}
{"molSmiles": "C=CC(=O)Nc1cc(Nc2ncc(Cl)c(O[C@@H]3CO[C@H]4[C@@H]3OC[C@H]4O)n2)ccc1N1CCC(N2CCN(C)CC2)CC1", "IC50, µM": 1.03}
{"molSmiles": "C=CC(=O)Nc1cc(Nc2ncc(Cl)c(O[C@@H]3CO[C@@H]4CCO[C@@H]43)n2)ccc1N(C)CCN(C)C", "IC50, µM": 1.06}
{"molSmiles": "C=CC(=O)Nc1cc(Nc2ncc(Cl)c(O[C@@H]3CO[C@H]4[C@@H]3OC[C@@H]4F)n2)ccc1N1CCC(N2CCN(C)CC2)CC1", "IC50, µM": 1.08}
{"molSmiles": "C=CC(=O)Nc1cc(Nc2ncc(Cl)c(O[C@@H]3CO[C@H]4[C@@H]3OC[C@H]4OC)n2)ccc1N1CCC(N2CCN(C)CC2)CC1", "IC50, µM": 0.967}
